system: RXF 393 renal; assay: NCI tumour cell line growth inhibition, 48 h; in the data active = GI50 below about 0.43 µM; inactive = the rest
Classes used: active, inactive

> print(dat)
                                  smilesstr  classlabel
1  COc1ccc(/C=C2/SC(Nc3nc(-c4nc(NC5=NC(=O)/C(=C\c6ccc(OC)cc6)S5)sc4C)c(C)s3)=NC2=O)cc1    inactive
2  COc1cc(C(=O)c2cnc(-c3cccc4[nH]ccc34)[nH]2)cc(OC)c1OC      active
3  N#Cc1cnc(Nc2cc(NC[C@H]3CNCCO3)c(C(F)(F)F)cn2)cn1    inactive
4  CC(=O)[C@H]1CCC/C=C/[C@@H]2C[C@H](O)C[C@H]2[C@H](O)/C=C/C(=O)O1      active
5  CC(=O)c1cc(C(=O)c2ccc3c(c2)Sc2ccccc2N3)n2ccccc12      active

* * *

system: HCC-2998 colon; test: NCI tumour cell line growth inhibition, 48 h
experimentalReadout: TGI

> print(dat)
                                    compound  experimentalreadout  experimentalresult
 1  Cn1cc(-c2cnn3c(N)c(Br)c(C4CCCNC4)nc23)cn1 (stereo unspecified)                  TGI           > 42.6 µM
 2  Clc1ccccc1-c1nnc2c(Cc3ccccc3)nc3ccccc3n12                  TGI            > 100 µM
 3       CSc1ccc(Nc2cc(=O)[nH]c(=O)[nH]2)cc1                  TGI            > 100 µM
 4  Nc1ncnc2c1ncn2C1CCC(CP(=O)(O)O)C1 (stereo unspecified)                  TGI            > 100 µM
 5  CCOc1ccn(-c2ccc(F)cc2)c(=O)c1C(=O)Nc1ccc(Oc2ccnc(N)c2Cl)c(F)c1                  TGI            > 100 µM
 6  COC(=O)c1oc2c(C(=O)/C=C/c3ccc(OC)cc3)c(OCCN(C)C)ccc2c1C                  TGI             24.6 µM
 7  Cc1cc(Nc2cc(N3CCN(C)CC3)nc(/C=C/c3ccccc3)n2)n[nH]1                  TGI             4.42 µM
 8  COc1cc(C(=O)c2cnc(-c3cccc4[nH]ccc34)[nH]2)cc(OC)c1OC                  TGI             59.3 µM
 9             Cc1ccc2nc(C(C)C)c(=O)[nH]c2c1                  TGI            > 100 µM
10  COc1cccc(C2SC(N)=Nc3c2c(C)nn3C(=O)Cc2ccccc2)c1 (stereo unspecified)                  TGI            > 100 µM
11  COC(=O)C1=CC2C=CC(C1C(=O)OC)C1C(C(=O)OC)=C(C(=O)OC)C(C(=O)OC)=C(C(=O)OC)C21OC (stereo unspecified)                  TGI            > 100 µM

* * *

test system: TK-10 renal; experiment: NCI tumour cell line growth inhibition, 48 h
experimentalReadout: GI50

molecule	experimentalResult
CCCCCCCCCC[C@H](O)[C@H](O)CC[C@@H](O)[C@H]1CC[C@@H]([C@H]2CC[C@H](CCCCCCC[C@@H](O)CC3=C[C@H](C)OC3=O)O2)O1	36.3 µM
CC(=O)[C@H]1CCC2[C@@H]3CC=C4C[C@@H]([O-])CC[C@]4(C)C3CC[C@@]21C.CC(=O)[C@H]1CCC2[C@@H]3CC=C4C[C@@H]([O-])CC[C@]4(C)C3CC[C@@]21C.CC(=O)[CH-]C(=O)c1ccccc1.CC(=O)[CH-]C(=O)c1ccccc1.Cl.[Ti+4] (stereo partly specified)	40.7 µM
C/C(=C(\c1ccc(OCCN2CCCCCC2)cc1)c1ccc(OC(=O)c2ccccc2)cc1)c1ccc(Cl)cc1	5.14 µM
CC(=O)C1=C(O)C=C2Oc3c(C(=O)/C=C/c4cc(Cl)cc(Cl)c4)c(O)c(C)c(O)c3[C@]2(C)C1=O	0.446 µM
COC(=O)c1oc2c(C(=O)/C=C/c3ccc(OC)cc3)c(OCCN(C)C)ccc2c1C	9.79 µM
CC(=O)N1N=C(c2ccc(Nc3nc(Nc4ccc(F)cc4)nc(Nc4ccc(F)cc4)n3)cc2)CC1c1ccc(N(C)C)cc1 (stereo unspecified)	7.02 µM
